target: purified Z-AAT protein from human plasma (Homo sapiens (Human), UniProt P01009, E366K); experiment: Biochemical Assay (Z-AAT Elastase Activity Assay); settings: purified Z-AAT pre-incubated with compound 1 hour, then human neutrophil elastase and fluorescent substrate
Sequence (P01009 25-418 E366K limits assumed): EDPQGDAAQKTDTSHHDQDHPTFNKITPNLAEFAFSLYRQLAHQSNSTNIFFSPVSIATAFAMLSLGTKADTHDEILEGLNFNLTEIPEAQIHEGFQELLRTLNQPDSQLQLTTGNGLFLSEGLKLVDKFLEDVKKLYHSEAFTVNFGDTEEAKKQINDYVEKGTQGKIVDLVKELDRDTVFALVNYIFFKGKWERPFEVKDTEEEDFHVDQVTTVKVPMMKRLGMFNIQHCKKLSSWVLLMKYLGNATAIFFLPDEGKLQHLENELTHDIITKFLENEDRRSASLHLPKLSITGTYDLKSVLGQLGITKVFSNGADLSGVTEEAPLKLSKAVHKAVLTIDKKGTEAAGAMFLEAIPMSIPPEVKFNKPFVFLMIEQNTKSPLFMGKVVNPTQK
pIC50: −log10 of the molar value.
Listed next: entries and their corresponding pIC50.

// worked examples, pIC50 included
# compound, endpoint.value
measured = [
    ("Cc1cc(-n2c(C3CCOCC3)c([C@H]3CC[C@H](C(=O)O)CC3)c3cc(O)ccc32)ccc1F [Compound 56]", "< 4.52"),
    ("COCC(C)(C)c1c([C@H]2C[C@H](C(=O)O)C2)c2cc(O)ccc2n1-c1ccc(F)c(C)c1 [Compound 73]", "< 4.52"),
    ("Cc1cc(-n2c(C(C)C)c(CCC(=O)O)c3cc(O)c(F)cc32)ccc1F [Compound 163]", "< 4.52"),
    ("Cc1cc(-n2c(C3CC3)c([C@H]3C[C@H](C(=O)O)C3)c3cc(O)ccc32)ccc1F [Compound 93]", "< 4.52"),
    ("Cc1cc(-n2c(C3CCOCC3)c([C@H]3C[C@@H](C(=O)O)C3)c3cc(O)ccc32)ccc1F [Compound 21]", "< 4.52"),
    ("Cc1cc(-n2c(C(C)C)c([C@H]3C[C@](C(=O)O)(C(F)(F)F)C3)c3cc(O)ccc32)ccc1F [Compound 61]", "< 5.30"),
]

Quick one: pIC50 for Cc1cc(-n2c(C3COC3)c([C@H]3C[C@@H]3C(=O)O)c3cc(O)ccc32)ccc1F [Compound 131] ? < 4.52

Fill in: pIC50 of O=C(O)[C@H]1CC[C@@H](c2c(C3CCOCC3)n(-c3ccc(F)c(F)c3)c3ccc(O)cc32)CC1 [Compound 138] is ___ < 4.52

What value of pIC50 has been recorded for this entry: N#Cc1c(C2CNC2)n(-c2ccc(F)cc2)c2ccc(O)cc12 [Compound 196] < 4.52

Value lookup for pIC50; key = Cc1cc(-n2c(C(C)C)c([C@H]3CC[C@H](C(=O)O)C3)c3cc(O)ccc32)ccc1F (racemic) [Compound 79] < 5.30

Give the measured pIC50 of Cc1cc(-n2c(C(C)C)c([C@H]3C[C@H](C(=O)O)C3)c3cc(O)ccc32)ccc1F [Compound 145] . < 5.30

Form field: reported pIC50 of Cc1cc(-n2c(C(C)C)c(C3CC4(C3)CC(F)(C(=O)O)C4)c3cc(O)ccc32)ccc1F (stereo not drawn) [Compound 148] > 5.70

Requested field: pIC50. Item: Cc1cc(-n2c(C(C)C)c(CC(C)C(=O)O)c3cc(O)ccc32)ccc1F (stereo not drawn) [Compound 26] < 4.52

Return reported pIC50; argument: Cc1cc(-n2c(C3CCOCC3)c([C@H]3C[C@@](C(=O)O)(C(F)(F)F)C3)c3cc(O)ccc32)ccc1F [Compound 9] < 5.30

The reported numbers originate from patent US20230339915A1.
